- targetOrTestSystem: ErbB2 (Homo sapiens)
- Sequence (P04626 23-1255, species assumed): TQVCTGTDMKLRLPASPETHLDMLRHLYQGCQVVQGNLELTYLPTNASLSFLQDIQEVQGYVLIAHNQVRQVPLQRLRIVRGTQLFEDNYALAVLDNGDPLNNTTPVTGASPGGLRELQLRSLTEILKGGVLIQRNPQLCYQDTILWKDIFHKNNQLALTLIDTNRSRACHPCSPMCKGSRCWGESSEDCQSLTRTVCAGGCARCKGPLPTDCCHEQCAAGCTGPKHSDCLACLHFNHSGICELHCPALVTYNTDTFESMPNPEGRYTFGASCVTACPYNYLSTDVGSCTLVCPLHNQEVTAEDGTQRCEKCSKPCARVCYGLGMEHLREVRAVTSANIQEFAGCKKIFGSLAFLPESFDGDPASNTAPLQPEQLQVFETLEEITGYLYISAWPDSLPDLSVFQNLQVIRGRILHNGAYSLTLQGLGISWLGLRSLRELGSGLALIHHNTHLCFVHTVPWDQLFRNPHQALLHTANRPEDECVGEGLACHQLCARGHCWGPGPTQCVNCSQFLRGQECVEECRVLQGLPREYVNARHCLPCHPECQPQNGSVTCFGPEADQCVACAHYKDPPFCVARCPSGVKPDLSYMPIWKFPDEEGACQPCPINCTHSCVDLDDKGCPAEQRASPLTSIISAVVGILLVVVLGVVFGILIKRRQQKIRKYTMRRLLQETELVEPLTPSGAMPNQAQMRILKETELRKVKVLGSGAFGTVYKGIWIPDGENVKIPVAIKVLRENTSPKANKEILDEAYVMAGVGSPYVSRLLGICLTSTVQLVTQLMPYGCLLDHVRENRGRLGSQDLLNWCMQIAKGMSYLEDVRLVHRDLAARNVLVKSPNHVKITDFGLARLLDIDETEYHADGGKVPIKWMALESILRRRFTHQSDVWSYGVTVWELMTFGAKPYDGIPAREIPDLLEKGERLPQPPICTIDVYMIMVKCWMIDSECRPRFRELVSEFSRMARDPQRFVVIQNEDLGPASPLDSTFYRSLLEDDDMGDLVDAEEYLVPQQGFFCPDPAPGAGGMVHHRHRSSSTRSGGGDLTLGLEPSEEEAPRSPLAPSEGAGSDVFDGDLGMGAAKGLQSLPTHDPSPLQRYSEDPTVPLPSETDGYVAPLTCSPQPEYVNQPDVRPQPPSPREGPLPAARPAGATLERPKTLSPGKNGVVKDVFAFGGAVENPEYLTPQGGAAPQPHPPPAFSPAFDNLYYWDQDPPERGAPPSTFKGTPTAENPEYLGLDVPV
For each entry below, report its IC50 value.

Field: example entries. Status: answers known.
> print(dat)
                                   molecule    targetortestsystem  observedmeasurement
1  CCCN(CC1CC1)c1ncnc(Nc2cc(OC)c(OC)c(OC)c2)n1  ErbB2 (Homo sapiens)              > 12 µM
2  O=C(O)Cc1cccc(Nc2ncnc(-c3cccnc3NCc3ccc(F)cc3)n2)c1  ErbB2 (Homo sapiens)     0.929 to 5.58 µM
3  CCN(CC)CCOc1ccc(Nc2ncnc(-n3c(N)nc4ccccc43)n2)cc1OC  ErbB2 (Homo sapiens)       5.35 to 7.8 µM

For each listed entry, give its IC50.
1. Fc1ccc(CNc2ncccc2-c2ncnc(Nc3cccc(Cn4ccnn4)c3)n2)cc1
2. COc1cc(Nc2ncnc(Nc3ccc4nn(Cc5ccccc5)cc4c3)n2)cc(OC)c1OC

> 9.92 µM
0.827 to 4.96 µM
